tested on: HCV genotype 1b (Con1) replicon in HUH-7 cells; assay: HCV replicon luciferase reporter assay, genotype 1b; type: cell-based; conditions: Hepatitis C virus, Huh-7, 72 h, HCV genotype 1b replicon luciferase, 3 days incubation, read-out: LE_1b (EC50, range)
readoutLabel: EC50

Exercise: So what does the record say about EC50 for COc1cnc(O[C@@H]2C[C@H]3C(=O)N[C@]4(C(=O)NS(=O)(=O)C5(CF)CC5)C[C@H]4CCCC[C@@H](C)C[C@@H](C)[C@H](NC(=O)OC(C)(C)C(F)(F)F)C(=O)N3C2)c2ccccc12 [Compound 5117] ?
Key: < 5.46 nM

Exercise: Value lookup for EC50; key = COc1nnc(O[C@@H]2C[C@H]3C(=O)N[C@]4(C(=O)NS(=O)(=O)C5(C)CC5)C[C@H]4/C=C\CC[C@H](C)C[C@@H](C)[C@H](NC(=O)OC(C)(C)C(F)(F)F)C(=O)N3C2)c2ccccc12 [Compound 5007]
Key: < 5.46 nM

Exercise: Which measured EC50 value corresponds to [2H]C([2H])([2H])C(OC(=O)N[C@@H]1C(=O)N2C[C@H](Oc3nn(CC)c(=O)c4ccccc34)C[C@H]2C(=O)N[C@]2(C(=O)NS(=O)(=O)C3CC3)C[C@H]2/C=C\CC[C@H](C)C[C@H]1C)(C([2H])([2H])[2H])C(F)(F)F [Compound 5068] ?
Key: > 87.4 nM
